- TARGET: 5-HT1D (Homo sapiens, UniProt P28221)
- Sequence (P28221 whole entry, species assumed): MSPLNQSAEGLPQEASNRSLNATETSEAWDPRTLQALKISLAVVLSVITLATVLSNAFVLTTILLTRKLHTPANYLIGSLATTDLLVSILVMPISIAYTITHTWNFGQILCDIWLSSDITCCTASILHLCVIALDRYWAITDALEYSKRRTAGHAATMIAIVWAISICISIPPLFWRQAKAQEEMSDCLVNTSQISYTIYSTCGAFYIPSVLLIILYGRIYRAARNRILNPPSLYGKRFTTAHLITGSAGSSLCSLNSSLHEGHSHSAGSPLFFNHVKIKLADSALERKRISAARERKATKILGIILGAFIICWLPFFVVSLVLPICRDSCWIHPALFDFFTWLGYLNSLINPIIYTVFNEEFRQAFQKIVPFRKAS
- ASSAY COMMENT: Secondary radioligand binding assay (Ki)
- CONDITION: read-out: Experimental Receptor Binding Data-Ki 5HT1D; Table 25, GPCR panel
MEASUREMENT NAME: pKi
API: returns pKi as number; meaning -log10 of concentration in mol/L.

Request: What pKi value was documented for this compound, COc1ccc2c(c1)C(=O)N(CCN1CCN(c3ccccc3OC)CC1)C2 ?
Response: 6.86

---

- TARGET: dopamine D2 (Homo sapiens)
- Sequence (P14416 whole entry, species assumed): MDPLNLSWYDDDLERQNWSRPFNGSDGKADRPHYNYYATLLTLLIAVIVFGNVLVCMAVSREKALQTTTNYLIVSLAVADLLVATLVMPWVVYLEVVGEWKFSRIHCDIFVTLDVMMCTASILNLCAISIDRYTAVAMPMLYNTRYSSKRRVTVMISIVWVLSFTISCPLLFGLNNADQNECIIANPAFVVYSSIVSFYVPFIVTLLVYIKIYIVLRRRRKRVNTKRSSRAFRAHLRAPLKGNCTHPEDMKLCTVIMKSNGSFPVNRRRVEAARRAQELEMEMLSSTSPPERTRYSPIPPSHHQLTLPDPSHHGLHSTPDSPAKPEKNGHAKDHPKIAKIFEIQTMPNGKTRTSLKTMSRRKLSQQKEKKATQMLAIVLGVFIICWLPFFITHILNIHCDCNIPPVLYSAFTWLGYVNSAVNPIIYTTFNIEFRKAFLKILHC
- ASSAY COMMENT: Secondary radioligand binding assay (Ki)
- CONDITION: Table 22: Selectivity of Dopamine D2 over α1 Receptors; ratio of Ki
Where a name gives a salt, the structure may show the parent alone.
Documented α1B/D2 across a set of compounds
Number only, no unit.

COc1ccc2c(c1)C(=O)N(CCN1CCN(c3ccccc3OC)CC1)C2 [GFR-VII-280-HCl]
0.017
COc1ccc2c(c1)C(=O)N(CCN1CCN(c3ccccc3OC)CC1)C2 [GFR-VII-280]
0.023
COc1ccc2c(c1)C(=O)N(CCCN1CCN(c3ccccc3OC)CC1)C2 [GFR-VII-273]
0.398
COc1ccc2c(c1)CN(CCCN1CCN(c3ccccc3OC)CC1)C2=O [GFR-VII-290]
0.445

Request: What α1B/D2 value was documented for this compound, COc1cc2c(cc1OC)C(=O)N(CCCCN1CCN(c3ccccc3OC)CC1)C2 [GFR-VII-285] ?
Response: 0.124

---

- TARGET: Alpha1D (Homo sapiens, UniProt P25100)
- Sequence (P25100 whole entry): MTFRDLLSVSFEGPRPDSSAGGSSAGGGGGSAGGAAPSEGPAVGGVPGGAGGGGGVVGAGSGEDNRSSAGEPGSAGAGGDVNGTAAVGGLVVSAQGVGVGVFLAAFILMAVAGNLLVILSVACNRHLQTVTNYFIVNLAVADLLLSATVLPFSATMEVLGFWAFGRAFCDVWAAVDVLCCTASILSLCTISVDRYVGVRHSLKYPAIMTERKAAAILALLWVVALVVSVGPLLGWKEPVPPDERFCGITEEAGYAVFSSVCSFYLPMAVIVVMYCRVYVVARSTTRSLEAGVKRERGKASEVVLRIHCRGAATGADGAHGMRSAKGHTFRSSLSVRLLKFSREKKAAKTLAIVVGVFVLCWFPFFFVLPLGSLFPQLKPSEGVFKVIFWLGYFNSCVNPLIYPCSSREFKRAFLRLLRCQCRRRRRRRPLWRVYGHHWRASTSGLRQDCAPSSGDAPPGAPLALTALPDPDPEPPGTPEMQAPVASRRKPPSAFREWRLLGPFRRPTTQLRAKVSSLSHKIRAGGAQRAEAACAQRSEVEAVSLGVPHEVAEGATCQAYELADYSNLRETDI
- ASSAY COMMENT: Primary radioligand binding assay (NIMH PDSP)
- CONDITION: primary radiobinding assay, [3H]Prazosin
Counter-ions that a name gives are not always drawn.
MEASUREMENT NAME: Alpha1D (% inh)
Reply with just the number (in % inh).

Observe how each entry below is paired with its result.
COc1ccc2c(c1)CN(CCCN1CCN(c3ccccc3OC)CC1)C2=O
100.5
COc1ccc2c(c1)C(=O)N(CCN1CCN(c3ccccc3OC)CC1)C2 [GFR-VII-280]
97.3
CC1Cc2ccccc2N1C(=O)CN1CCN(Cc2ccccc2)CC1 (stereo not shown)
42.8
COc1ccc2c(c1)C(=O)N(CCN1CCN(c3ccccc3OC)CC1)C2 [GFR-VII-280-HCl]
98.7
COc1cc2c(cc1OC)C(=O)N(CCCCN1CCN(c3ccccc3OC)CC1)C2
96.8

Request: What Alpha1D (% inh) value was documented for this molecule, CC1Cc2ccccc2N1C(=O)CN1CCN(c2ccccc2)CC1 (stereo not shown) ?
Response: 31.1

Request: What Alpha1D (% inh) value was documented for this molecule, COc1ccc2c(c1)C(=O)N(CCCN1CCN(c3ccccc3OC)CC1)C2 ?
Response: 99.3

---

- TARGET: 5HT1a (Homo sapiens, UniProt P08908)
- Sequence (P08908 whole entry, species assumed): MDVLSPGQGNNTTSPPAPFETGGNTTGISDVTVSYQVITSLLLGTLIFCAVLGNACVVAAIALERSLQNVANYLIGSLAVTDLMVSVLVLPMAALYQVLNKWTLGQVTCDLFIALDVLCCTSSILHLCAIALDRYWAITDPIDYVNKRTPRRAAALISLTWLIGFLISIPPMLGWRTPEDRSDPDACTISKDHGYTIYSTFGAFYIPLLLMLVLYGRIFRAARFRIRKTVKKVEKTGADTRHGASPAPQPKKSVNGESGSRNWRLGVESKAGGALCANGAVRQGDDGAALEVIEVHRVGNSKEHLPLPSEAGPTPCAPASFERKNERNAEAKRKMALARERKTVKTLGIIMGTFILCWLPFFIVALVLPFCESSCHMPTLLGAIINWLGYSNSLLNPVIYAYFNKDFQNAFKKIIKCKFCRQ
- ASSAY COMMENT: Secondary radioligand binding assay (Ki)
- CONDITION: Table 24: Selectivity of 5HT1A over α1 Receptors; ratio of Ki
Structures can show the parent of a compound that is named as a salt.
MEASUREMENT NAME: α1B/D2
Number only, no unit.

COc1ccc2c(c1)C(=O)N(CCCN1CCN(c3ccccc3OC)CC1)C2 [GFR-VII-273]
49.7
COc1ccc2c(c1)CN(CCCN1CCN(c3ccccc3OC)CC1)C2=O [GFR-VII-290]
32.0
COc1ccc2c(c1)C(=O)N(CCN1CCN(c3ccccc3OC)CC1)C2 [GFR-VII-280-HCl]
12.1
COc1ccc2c(c1)C(=O)N(CCN1CCN(c3ccccc3OC)CC1)C2 [GFR-VII-280]
11.1

Consider now this further compound.
Request: What α1B/D2 value was documented for this compound, COc1cc2c(cc1OC)C(=O)N(CCCCN1CCN(c3ccccc3OC)CC1)C2 [GFR-VII-285] ?
Response: 0.8
